# Lookup of reported IC50 keyed by entry
target: hLPAR1 (Homo sapiens); test: Ca2+ Flux Assay (B103 cells stably expressing hLPAR1); details: LPA-induced calcium release, Fura-2 AM, compound 20 min at RT
Sequence (Q92633 whole entry): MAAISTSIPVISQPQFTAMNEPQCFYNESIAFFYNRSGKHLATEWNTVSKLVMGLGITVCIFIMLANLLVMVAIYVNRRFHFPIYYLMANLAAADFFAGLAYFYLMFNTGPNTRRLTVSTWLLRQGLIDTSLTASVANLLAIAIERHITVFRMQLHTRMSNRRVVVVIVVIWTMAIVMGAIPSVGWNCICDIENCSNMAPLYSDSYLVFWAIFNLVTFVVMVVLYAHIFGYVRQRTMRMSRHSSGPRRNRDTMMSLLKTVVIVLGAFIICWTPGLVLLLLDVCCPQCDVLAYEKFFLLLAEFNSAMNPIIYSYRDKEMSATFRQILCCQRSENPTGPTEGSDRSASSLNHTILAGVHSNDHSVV

{"Compound": "CCCN(C)C(=O)OCc1c(C)noc1C1CCN(c2ccc(C3(C(=O)NS(=O)(=O)C(F)(F)F)CC3)cc2)CC1 [Compound 13]", "IC50": "≥ 3000 nM"}
{"Compound": "Cc1noc(C2CCN(c3ccc(C4(C(=O)NS(=O)(=O)C5(CC(=O)O)CC5)CC4)cc3)CC2)c1NC(=O)O[C@H](C)c1ccccc1 [Compound 76]", "IC50": "< 10 nM"}
{"Compound": "Cc1nsc(C2CCN(c3ccc(C4(C(=O)O)CC4)cc3)CC2)c1NC(=O)O[C@H](C)c1ccccc1F [Compound 43]", "IC50": "10 to 200 nM"}
{"Compound": "Cn1nnc(C2CCN(c3ccc(C4(C(=O)O)CC4)cc3)CC2)c1Nc1cccc(-c2ccccc2)n1 [Compound 6]", "IC50": "10 to 200 nM"}
{"Compound": "COc1cc(C2(C(=O)O)CC2)ccc1N1CCC(c2nnn(C)c2NC(=O)O[C@H](C)c2ccccc2)CC1 [Compound 4]", "IC50": "< 10 nM"}

Q) Look up IC50 of Cc1noc(C2CCN(c3ccc(C4(C(=O)NS(=O)(=O)CCCC(=O)O)CC4)cc3)CC2)c1NC(=O)O[C@H](C)c1ccccc1 [Compound 84] and report it.
A) < 10 nM

Q) Look up IC50 of Cc1noc(C2CCN(c3ccc(C4(c5nnn[nH]5)CC4)cc3)CC2)c1NC(=O)O[C@H](C)c1ccccc1 [Compound 88] and report it.
A) < 10 nM

Q) Look up IC50 of COc1cc(C2(CNS(=O)(=O)CCC(=O)O)CC2)ccc1N1CCC(c2nnn(C)c2NC(=O)O[C@H](C)c2ccccc2)CC1 [Compound 3] and report it.
A) < 10 nM

Q) Look up IC50 of Cc1noc(C2CC3(C2)CN(c2ccc(C4(C(=O)NS(=O)(=O)CCCO)CC4)cc2)C3)c1NC(=O)O[C@H](C)c1ccccc1 [Compound 52] and report it.
A) < 10 nM

Q) Look up IC50 of Cc1noc(C2CCN(c3ccc(C4(C(=O)O)CC4)cc3)CC2)c1NC(=O)O[C@H](C)c1ccccc1 [Compound 87] and report it.
A) < 10 nM

###

molecular target: BSEP (Homo sapiens); construct: ATP-dependent uptake of radiolabelled probe substrate; assay: Bile Salt Export Pump (BSEP) Assay, Sf9 insect cell vesicles expressing BSEP; assay type: in vitro ADME; settings: 10 μM test compound, probe substrate 1 μM [3H]-taurocholic acid, 15 min incubation
Sequence (O95342 whole entry): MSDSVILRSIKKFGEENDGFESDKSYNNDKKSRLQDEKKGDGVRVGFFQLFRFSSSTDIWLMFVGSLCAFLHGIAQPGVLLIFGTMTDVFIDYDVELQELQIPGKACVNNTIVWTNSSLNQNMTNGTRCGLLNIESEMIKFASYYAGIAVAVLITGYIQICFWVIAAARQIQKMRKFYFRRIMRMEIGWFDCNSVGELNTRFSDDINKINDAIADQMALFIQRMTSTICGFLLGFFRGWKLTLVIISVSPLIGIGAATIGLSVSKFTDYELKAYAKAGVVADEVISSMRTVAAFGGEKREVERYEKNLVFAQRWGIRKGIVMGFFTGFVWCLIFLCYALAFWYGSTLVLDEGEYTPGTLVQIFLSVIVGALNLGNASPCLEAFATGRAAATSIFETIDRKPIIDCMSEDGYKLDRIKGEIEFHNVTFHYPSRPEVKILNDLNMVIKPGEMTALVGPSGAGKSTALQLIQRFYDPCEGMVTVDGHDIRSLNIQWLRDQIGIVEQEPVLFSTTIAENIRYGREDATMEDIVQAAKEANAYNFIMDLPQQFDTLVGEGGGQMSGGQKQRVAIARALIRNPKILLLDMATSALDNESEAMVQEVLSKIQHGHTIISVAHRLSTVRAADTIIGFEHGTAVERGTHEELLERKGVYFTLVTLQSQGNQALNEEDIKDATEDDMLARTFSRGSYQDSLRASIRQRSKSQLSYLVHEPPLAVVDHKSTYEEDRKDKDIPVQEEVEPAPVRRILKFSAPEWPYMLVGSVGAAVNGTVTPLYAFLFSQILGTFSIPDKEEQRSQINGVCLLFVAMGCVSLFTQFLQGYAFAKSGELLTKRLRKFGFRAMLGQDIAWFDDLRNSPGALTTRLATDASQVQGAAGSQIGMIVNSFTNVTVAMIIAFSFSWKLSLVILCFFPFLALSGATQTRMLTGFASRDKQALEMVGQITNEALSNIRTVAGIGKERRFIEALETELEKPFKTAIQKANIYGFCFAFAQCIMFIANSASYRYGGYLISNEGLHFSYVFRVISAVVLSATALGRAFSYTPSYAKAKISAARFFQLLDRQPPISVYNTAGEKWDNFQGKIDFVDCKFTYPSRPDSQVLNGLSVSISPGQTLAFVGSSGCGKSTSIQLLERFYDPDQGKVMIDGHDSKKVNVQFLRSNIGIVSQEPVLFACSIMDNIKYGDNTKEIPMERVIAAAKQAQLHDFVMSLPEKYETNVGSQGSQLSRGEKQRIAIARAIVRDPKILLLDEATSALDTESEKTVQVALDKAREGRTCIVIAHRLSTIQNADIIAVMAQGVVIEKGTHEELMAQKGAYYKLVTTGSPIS
Endpoint Label: inhibition at 0.25 h, 10 µM

Example results:
{"Compound": "Cc1noc(C2CCN(c3ccc(C4(C(=O)O)CC4)cc3)CC2)c1NC(=O)O[C@H](C)c1ccccc1 [Compound 87]", "Measured Target": "BSEP (Homo sapiens)", "inhibition at 0.25 h, 10 µM": "25 to 50%"}
{"Compound": "Cc1noc(C2CCN(c3ccc(C4(C(=O)NS(=O)(=O)CC(C)(C)C(=O)O)CC4)cc3)CC2)c1NC(=O)O[C@H](C)c1ccccc1 [Compound 78]", "Measured Target": "BSEP (Homo sapiens)", "inhibition at 0.25 h, 10 µM": "25 to 50%"}
{"Compound": "Cc1nsc(C2CCN(c3ccc(C4(C(=O)O)CC4)cc3)CC2)c1NC(=O)O[C@H](C)c1ccccc1 [Compound 95]", "Measured Target": "BSEP (Homo sapiens)", "inhibition at 0.25 h, 10 µM": "25 to 50%"}
{"Compound": "C[C@@H](OC(=O)Nc1c(C2CCN(c3ccc(C4(C(=O)O)CC4)cc3)CC2)nnn1C)c1ccccc1 [Compound 60]", "Measured Target": "BSEP (Homo sapiens)", "inhibition at 0.25 h, 10 µM": "≤ 25%"}
{"Compound": "C[C@@H](OC(=O)Nc1c(C2CCN(c3ccc(C4(C(=O)O)CC4)cc3)CC2)cnn1C)c1ccccc1 [Compound 55]", "Measured Target": "BSEP (Homo sapiens)", "inhibition at 0.25 h, 10 µM": "25 to 50%"}

Q) Give measured inhibition at 0.25 h, 10 µM for Cc1noc(C2CC3(C2)CN(c2ccc(C4(C(=O)NS(C)(=O)=O)CC4)cc2)C3)c1NC(=O)O[C@H](C)c1ccccc1 [Compound 9] (BSEP (Homo sapiens)).
A) 50 to 75%

Q) Give measured inhibition at 0.25 h, 10 µM for Cc1noc(C2CCN(c3ccc(C4(c5cc(O)no5)CC4)cc3)CC2)c1NC(=O)O[C@H](C)c1ccccc1 [Compound 64] (BSEP (Homo sapiens)).
A) 75 to 100%

Q) Give measured inhibition at 0.25 h, 10 µM for Cc1noc(C2CCN(c3ccc(C4(C(=O)NS(=O)(=O)C(C)C(=O)O)CC4)cc3)CC2)c1NC(=O)O[C@H](C)c1ccccc1 (some centres unmarked) [Compound 71] (BSEP (Homo sapiens)).
A) 25 to 50%

Q) Give measured inhibition at 0.25 h, 10 µM for Cc1ccccc1[C@@H](C)OC(=O)Nc1c(C)noc1C1CC2(C1)CN(c1ccc(C3(C(=O)NS(C)(=O)=O)CC3)cc1)C2 [Compound 7] (BSEP (Homo sapiens)).
A) 75 to 100%
